Origin of the recorded values: paper PMC9516332

- target_under_test: panel of 255 wild-type kinases (Homo sapiens, UniProt Q9Y463)
- Sequence (Q9Y463 whole entry): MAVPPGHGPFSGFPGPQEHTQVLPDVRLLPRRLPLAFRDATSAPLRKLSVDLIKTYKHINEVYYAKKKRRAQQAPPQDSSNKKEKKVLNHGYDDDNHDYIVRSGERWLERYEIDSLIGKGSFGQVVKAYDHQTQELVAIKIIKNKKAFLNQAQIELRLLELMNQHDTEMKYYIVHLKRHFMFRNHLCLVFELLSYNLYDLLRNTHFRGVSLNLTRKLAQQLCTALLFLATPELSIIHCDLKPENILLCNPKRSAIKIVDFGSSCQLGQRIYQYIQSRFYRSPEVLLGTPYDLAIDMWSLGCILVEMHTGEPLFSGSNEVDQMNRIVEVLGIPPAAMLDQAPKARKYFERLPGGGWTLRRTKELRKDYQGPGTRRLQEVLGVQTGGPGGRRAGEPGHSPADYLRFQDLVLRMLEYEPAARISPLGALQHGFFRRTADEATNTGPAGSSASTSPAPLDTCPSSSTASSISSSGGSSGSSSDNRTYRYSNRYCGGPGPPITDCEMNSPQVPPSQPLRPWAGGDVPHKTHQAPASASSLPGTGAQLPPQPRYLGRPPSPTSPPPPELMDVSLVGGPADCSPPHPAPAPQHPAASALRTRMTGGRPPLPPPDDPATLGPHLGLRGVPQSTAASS
- method_description: Kinase panel profiling at 1 µmol/L (MSA or IMAP), percentage inhibition
- Assay type: biochemical
- run_conditions: kinase DYRK1B; 1 µmol/L single concentration; read-out: %-inhibition at 1 µmol/L, DYRK1B
measure: inhibition at 1 µM (%)
# output: bare number, implied unit %

input: Give inhibition at 1 µM for Cc1cc(Nc2ncnc3ccc(NC4=NC(C)(C)CO4)cc23)ccc1Oc1ccn2ncnc2c1 [tucatinib]
output: -1.89

input: Give inhibition at 1 µM for COc1ccc(CN2C3CC2CN(c2ccc(-c4cc(OCC(C)(C)O)cn5ncc(C#N)c45)cn2)C3)cn1 [selpercatinib]
output: 1.42

input: Give inhibition at 1 µM for COc1cc2ncnc(Nc3ccc(F)c(Cl)c3)c2cc1NC(=O)/C=C/CN1CCCCC1 [dacomitinib]
output: 7

input: Give inhibition at 1 µM for FC(F)(F)c1ccc(CNc2ccc(Cc3c[nH]c4ncc(Cl)cc34)cn2)cn1 [pexidartinib]
output: 4.37

----------
- target_under_test: panel of 255 wild-type kinases (Homo sapiens, UniProt P09769)
- Sequence (P09769 whole entry): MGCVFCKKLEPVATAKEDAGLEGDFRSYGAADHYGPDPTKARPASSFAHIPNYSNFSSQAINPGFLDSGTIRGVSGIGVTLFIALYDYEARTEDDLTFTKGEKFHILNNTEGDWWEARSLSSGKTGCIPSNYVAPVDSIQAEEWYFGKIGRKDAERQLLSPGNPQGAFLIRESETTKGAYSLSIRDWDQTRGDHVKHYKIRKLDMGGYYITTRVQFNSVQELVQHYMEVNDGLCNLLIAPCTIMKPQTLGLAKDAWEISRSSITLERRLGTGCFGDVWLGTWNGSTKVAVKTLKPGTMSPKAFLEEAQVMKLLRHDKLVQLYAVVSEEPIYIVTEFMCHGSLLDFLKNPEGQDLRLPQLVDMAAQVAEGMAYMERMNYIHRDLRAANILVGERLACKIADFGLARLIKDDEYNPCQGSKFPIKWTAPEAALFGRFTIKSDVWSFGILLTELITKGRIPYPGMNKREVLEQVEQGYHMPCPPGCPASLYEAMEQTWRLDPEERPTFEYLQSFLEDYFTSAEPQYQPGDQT
- method_description: Kinase panel profiling at 1 µmol/L (MSA or IMAP), percentage inhibition
- Type: biochemical
- run_conditions: kinase FGR; 1 µmol/L single concentration; read-out: %-inhibition at 1 µmol/L, FGR
inhibition at 1 µM below 50% gives false (0); inhibition at 1 µM at or above it gives true (1).

input: Has COc1cc2ncnc(Nc3ccc(F)c(Cl)c3)c2cc1NC(=O)/C=C/CN1CCCCC1 a recorded inhibition at 1 µM greater than or equal to 50%?
output: true (1)

input: Has Cn1cc(-c2cc3c(N4CCN(c5ncc([C@@](C)(N)c6ccc(F)cc6)cn5)CC4)ncnn3c2)cn1 a recorded inhibition at 1 µM greater than or equal to 50%?
output: true (1)

input: Has Cc1nc(NC(=O)N2CCC[C@H]2C(N)=O)sc1-c1ccnc(C(C)(C)C(F)(F)F)c1 a recorded inhibition at 1 µM greater than or equal to 50%?
output: false (0)

input: Has COC(=O)N[C@@H](C)CNc1nccc(-c2cn(C(C)C)nc2-c2cc(Cl)cc(NS(C)(=O)=O)c2F)n1 a recorded inhibition at 1 µM greater than or equal to 50%?
output: false (0)

input: Has O=C(Nc1cnn2ccc(N3CCC[C@@H]3c3cc(F)ccc3F)nc12)N1CC[C@H](O)C1 a recorded inhibition at 1 µM greater than or equal to 50%?
output: false (0)

input: Has CN1CCN(c2ccc(C(=O)Nc3n[nH]c4ccc(Cc5cc(F)cc(F)c5)cc34)c(NC3CCOCC3)c2)CC1 a recorded inhibition at 1 µM greater than or equal to 50%?
output: true (1)

input: Has Cc1cc(Nc2ncnc3ccc(NC4=NC(C)(C)CO4)cc23)ccc1Oc1ccn2ncnc2c1 a recorded inhibition at 1 µM greater than or equal to 50%?
output: false (0)

input: Has C=CC(=O)N1CCC([C@@H]2CCNc3c(C(N)=O)c(-c4ccc(Oc5ccccc5)cc4)nn32)CC1 a recorded inhibition at 1 µM greater than or equal to 50%?
output: false (0)

input: Has Cn1cnc2c(F)c(Nc3ccc(Br)cc3Cl)c(C(=O)NOCCO)cc21 a recorded inhibition at 1 µM greater than or equal to 50%?
output: false (0)

input: Has CCN1C(=O)N(c2c(F)c(OC)cc(OC)c2F)Cc2cnc3[nH]c(CN4CCOCC4)cc3c21 a recorded inhibition at 1 µM greater than or equal to 50%?
output: false (0)

input: Has CO[C@]1(C(=O)N[C@@H](C)c2ccc(-n3cc(F)cn3)nc2)CC[C@H](c2nc(C)cc(Nc3cc(C)[nH]n3)n2)CC1 a recorded inhibition at 1 µM greater than or equal to 50%?
output: true (1)

input: Has CCc1nc(C(N)=O)c(Nc2ccc(N3CCC(N4CCN(C)CC4)CC3)c(OC)c2)nc1NC1CCOCC1 a recorded inhibition at 1 µM greater than or equal to 50%?
output: true (1)

input: Has C[C@H](Nc1ncnc2nc[nH]c12)c1cc2cccc(Cl)c2c(=O)n1-c1ccccc1 a recorded inhibition at 1 µM greater than or equal to 50%?
output: false (0)

----------
- target_under_test: panel of 255 wild-type kinases (Homo sapiens, UniProt P17948)
- Sequence (P17948 27-1338): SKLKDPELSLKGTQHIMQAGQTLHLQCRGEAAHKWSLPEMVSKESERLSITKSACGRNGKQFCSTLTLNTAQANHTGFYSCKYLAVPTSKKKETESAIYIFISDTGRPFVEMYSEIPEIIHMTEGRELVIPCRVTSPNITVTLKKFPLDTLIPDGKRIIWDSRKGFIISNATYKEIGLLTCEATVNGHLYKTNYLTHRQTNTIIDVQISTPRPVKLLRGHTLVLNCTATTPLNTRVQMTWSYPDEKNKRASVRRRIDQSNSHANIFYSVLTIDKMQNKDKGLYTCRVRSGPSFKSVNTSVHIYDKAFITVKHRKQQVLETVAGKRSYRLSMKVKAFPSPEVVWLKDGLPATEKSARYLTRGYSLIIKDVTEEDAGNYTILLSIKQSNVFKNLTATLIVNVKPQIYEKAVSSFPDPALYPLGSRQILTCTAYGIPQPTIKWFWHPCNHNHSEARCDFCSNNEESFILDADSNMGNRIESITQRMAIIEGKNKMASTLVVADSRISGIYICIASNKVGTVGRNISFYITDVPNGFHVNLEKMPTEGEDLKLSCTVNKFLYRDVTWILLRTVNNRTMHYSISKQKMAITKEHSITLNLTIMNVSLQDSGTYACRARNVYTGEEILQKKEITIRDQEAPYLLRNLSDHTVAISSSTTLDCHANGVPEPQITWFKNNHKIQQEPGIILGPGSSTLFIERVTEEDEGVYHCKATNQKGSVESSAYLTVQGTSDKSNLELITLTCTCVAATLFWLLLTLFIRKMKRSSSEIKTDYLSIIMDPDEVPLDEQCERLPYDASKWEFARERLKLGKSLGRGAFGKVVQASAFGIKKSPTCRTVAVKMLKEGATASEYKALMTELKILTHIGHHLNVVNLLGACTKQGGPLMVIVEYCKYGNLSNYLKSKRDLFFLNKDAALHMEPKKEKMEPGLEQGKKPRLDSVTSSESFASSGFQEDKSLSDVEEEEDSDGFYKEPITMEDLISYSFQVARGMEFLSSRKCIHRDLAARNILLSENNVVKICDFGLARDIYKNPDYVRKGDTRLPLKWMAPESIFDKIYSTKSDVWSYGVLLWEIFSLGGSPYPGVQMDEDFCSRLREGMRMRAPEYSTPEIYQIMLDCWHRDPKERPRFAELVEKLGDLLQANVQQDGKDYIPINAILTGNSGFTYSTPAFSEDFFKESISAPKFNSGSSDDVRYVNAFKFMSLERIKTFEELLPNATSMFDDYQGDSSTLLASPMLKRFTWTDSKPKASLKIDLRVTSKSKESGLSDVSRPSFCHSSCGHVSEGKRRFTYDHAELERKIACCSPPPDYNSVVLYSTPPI
- method_description: Kinase panel profiling at 1 µmol/L (MSA or IMAP), percentage inhibition
- Assay type: biochemical
- run_conditions: kinase FLT1; 1 µmol/L single concentration; read-out: %-inhibition at 1 µmol/L, FLT1
measure: inhibition at 1 µM (%)
# output: bare number, implied unit %

input: Give inhibition at 1 µM for Cn1cc(-c2cc3c(N4CCN(c5ncc([C@@](C)(N)c6ccc(F)cc6)cn5)CC4)ncnn3c2)cn1 [avapritinib]
output: 76

input: Give inhibition at 1 µM for CCc1nc(C(N)=O)c(Nc2ccc(N3CCC(N4CCN(C)CC4)CC3)c(OC)c2)nc1NC1CCOCC1 [gilteritinib]
output: 95

input: Give inhibition at 1 µM for FC(F)(F)c1ccc(CNc2ccc(Cc3c[nH]c4ncc(Cl)cc34)cn2)cn1 [pexidartinib]
output: 82

input: Give inhibition at 1 µM for C=CC(=O)N1CCC([C@@H]2CCNc3c(C(N)=O)c(-c4ccc(Oc5ccccc5)cc4)nn32)CC1 [zanubrutinib]
output: 2.22

input: Give inhibition at 1 µM for C[C@H]1Oc2cc(cnc2N)-c2c(nn(C)c2C#N)CN(C)C(=O)c2ccc(F)cc21 [lorlatinib]
output: 3.17

input: Give inhibition at 1 µM for Cc1cc(Nc2ncnc3ccc(NC4=NC(C)(C)CO4)cc23)ccc1Oc1ccn2ncnc2c1 [tucatinib]
output: 3.22

input: Give inhibition at 1 µM for COc1cc2ncnc(Nc3ccc(F)c(Cl)c3)c2cc1NC(=O)/C=C/CN1CCCCC1 [dacomitinib]
output: 20

input: Give inhibition at 1 µM for CCN1C(=O)N(c2c(F)c(OC)cc(OC)c2F)Cc2cnc3[nH]c(CN4CCOCC4)cc3c21 [pemigatinib]
output: 95

input: Give inhibition at 1 µM for Cc1nc(NC(=O)N2CCC[C@H]2C(N)=O)sc1-c1ccnc(C(C)(C)C(F)(F)F)c1 [alpelisib]
output: 3

input: Give inhibition at 1 µM for CN1CCN(c2ccc(C(=O)Nc3n[nH]c4ccc(Cc5cc(F)cc(F)c5)cc34)c(NC3CCOCC3)c2)CC1 [entrectinib]
output: 76

input: Give inhibition at 1 µM for Cn1cnc2c(F)c(Nc3ccc(Br)cc3F)c(C(=O)NOCCO)cc21 [binimetinib]
output: 10

input: Give inhibition at 1 µM for CO[C@]1(C(=O)N[C@@H](C)c2ccc(-n3cc(F)cn3)nc2)CC[C@H](c2nc(C)cc(Nc3cc(C)[nH]n3)n2)CC1 [pralsetinib]
output: 96

input: Give inhibition at 1 µM for CCN1CCN(c2ccc(Nc3cc(N(C)C(=O)Nc4c(Cl)c(OC)cc(OC)c4Cl)ncn3)cc2)CC1 [infigratinib]
output: 91

input: Give inhibition at 1 µM for Cn1cnc2c(F)c(Nc3ccc(Br)cc3Cl)c(C(=O)NOCCO)cc21 [selumetinib]
output: 4.22

input: Give inhibition at 1 µM for C[C@H](Nc1ncnc2nc[nH]c12)c1cc2cccc(Cl)c2c(=O)n1-c1ccccc1 [duvelisib]
output: 7.43

input: Give inhibition at 1 µM for COC(=O)N[C@@H](C)CNc1nccc(-c2cn(C(C)C)nc2-c2cc(Cl)cc(NS(C)(=O)=O)c2F)n1 [encorafenib]
output: 17

----------
- System: 134 cancer cell lines
- method_description: Cell viability assay (ATPlite, 72 hours), IC50 on cancer cell line panel
- run_conditions: Homo sapiens, HCC827, read-out: IC50 in cell proliferation assay, cell line HCC827 (EGFR exon19del)
measure: pIC50
# log scale: pIC50 equals minus log10 of the concentration in mol/L

input: Give pIC50 for CCN1CCN(c2ccc(Nc3cc(N(C)C(=O)Nc4c(Cl)c(OC)cc(OC)c4Cl)ncn3)cc2)CC1
output: 5.30

input: Give pIC50 for COC(=O)N[C@@H](C)CNc1nccc(-c2cn(C(C)C)nc2-c2cc(Cl)cc(NS(C)(=O)=O)c2F)n1
output: 6.05

input: Give pIC50 for Cc1cc(Nc2ncc(Cl)c(Nc3ccccc3S(=O)(=O)C(C)C)n2)c(OC(C)C)cc1C1CCNCC1
output: 5.43

input: Give pIC50 for COc1ccc(CN2C3CC2CN(c2ccc(-c4cc(OCC(C)(C)O)cn5ncc(C#N)c45)cn2)C3)cn1
output: 4.87

input: Give pIC50 for O=C(c1ccc(F)c(F)c1Nc1ccc(I)cc1F)N1CC(O)([C@@H]2CCCCN2)C1
output: 6.49

input: Give pIC50 for C[C@H](Nc1ncnc2nc[nH]c12)c1cc2cccc(Cl)c2c(=O)n1-c1ccccc1
output: 5.66

input: Give pIC50 for CN1CCN(c2ccc(C(=O)Nc3n[nH]c4ccc(Cc5cc(F)cc(F)c5)cc34)c(NC3CCOCC3)c2)CC1
output: 5.53

input: Give pIC50 for Cc1cc(Nc2ncnc3ccc(NC4=NC(C)(C)CO4)cc23)ccc1Oc1ccn2ncnc2c1
output: 5.62
